Where do these numbers come from? They come from the supplement of paper PMC10126150.

- Tested on: ATP;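 note: ATP exposure 15 min at 22 °C before imaging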
- Assay info: switch fluorescence ratio, 500 uM ATP over buffer (Cy3 cluster intensity, sum of 5 cycles each) (fold (ratio)); higher = stronger signal-on switching upon ATP binding; sequences stand for … in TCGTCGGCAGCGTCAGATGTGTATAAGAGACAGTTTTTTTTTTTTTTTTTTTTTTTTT…TC
- Test settings: aptamer strand: ATP DNA aptamer (quencher-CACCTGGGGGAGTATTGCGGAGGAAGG + anchor), 100 nM annealed; ATP concentration: 500 uM
Measurement kind: switch fluorescence ratio

AGTGTTAGTG = 0.997
TTGGGCGAAT = 0.988
CTCGCACGTT = 1.03
TCCAGTATGG = 1.01
TGTGTTTCGG = 0.98
GAGACCCGTG = 0.987
TGGCGATAAT = 1.05
CGTTGCAAAG = 1.03
TAAAGGGCTT = 1.02
TCATCGGTTT = 0.977
CTTCGGGGGA = 0.992
TATGCGGACA = 1.04

* * *

- Tested on: ATP;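 note: ATP exposure 15 min at 22 °C before imaging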
- Assay info: switch fluorescence ratio, 500 uM ATP over buffer (Cy3 cluster intensity, sum of 5 cycles each) (fold (ratio)); higher = stronger signal-on switching upon ATP binding; sequences stand for … in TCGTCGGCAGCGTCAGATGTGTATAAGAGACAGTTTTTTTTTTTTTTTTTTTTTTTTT…TC
- Test settings: aptamer strand: ATP DNA aptamer (quencher-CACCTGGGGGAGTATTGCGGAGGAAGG + anchor), 100 nM annealed; ATP concentration: 500 uM
List of switch fluorescence ratio values.
Measurement kind: switch fluorescence ratio

GCTCATTTCG = 1.02
TCTGATTATA = 0.987
CGCGAGATAT = 1.03
GTTTGGTATT = 1.01
CGTCTGGGGA = 0.996
AACCACAGGA = 1.06
GTGGGATTGA = 0.99
GGACAAGAGA = 0.996
ATTGTGATGA = 1.02
TGGGGGTAAC = 1.1
ACACTCATTG = 1.06
CTTTCGAGAG = 1
CATTAATGTA = 0.998
TTTGGCTGGG = 0.985
TATAGTCTCG = 1.01
TCATTCGGTT = 1.02
CGGAAGTGTG = 0.981
CTGGGGAAAC = 1.03
TTGGGAAATG = 0.985
TAGAAAAGGG = 1.03

* * *

- System: ATP;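 note: ATP exposure 15 min at 22 °C before imaging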
- Assay info: switch fluorescence ratio, 500 uM ATP over buffer (Cy3 cluster intensity, sum of 5 cycles each) (fold (ratio)); higher = stronger signal-on switching upon ATP binding; sequences stand for … in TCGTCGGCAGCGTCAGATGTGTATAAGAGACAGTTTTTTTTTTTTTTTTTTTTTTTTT…TC
- Test settings: aptamer strand: ATP DNA aptamer (quencher-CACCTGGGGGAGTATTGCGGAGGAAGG + anchor), 100 nM annealed; ATP concentration: 500 uM
Measurement kind: switch fluorescence ratio

CGATGTGCCC = 0.983
AGGGGAATGT = 0.979
CTCGCAGGAA = 1.75
AGTTGAGAG = 1.03
TTCTCAGTTT = 1.15
CGTTCGCTTA = 1.96
TCGTAGGTGG = 1.02
TAATGGGGAG = 0.993
GTTAGGTCAG = 0.997
TAGGAGCGTG = 1.02
GGGGTATCTC = 0.986
GAAATCAGCA = 1.03
TGTTAATCAG = 0.986
AATGTTATTG = 0.998
GCGGAGCTTT = 1.01
TCCCCCGCCG = 1.09
TTAGGAAA = 0.984
GGTGTGGAGG = 1.02
ATGAAAGTGC = 1.02
CAATTAGTGA = 1.01
TTAGAAGTGG = 0.988
CGGGCTATGG = 1
GTTACACGGT = 1.01
ATCGGCAGTT = 1
AAGGGTTGTT = 1.01
GGTTTGCTGA = 1.01
TTTCAGGGTC = 1.15
AATAAAAGAT = 1
AGGGGCTAGG = 0.983
GGGTTGGGTT = 1.05
GTGGCAGGTG = 2.53
TTTCTTTTTG = 0.99
AGGGGGTCTA = 1.01
ATGGAGGCTT = 0.975
GTAGGGGTTC = 0.982
ATGTGGGTTT = 0.974
CATCGTGGTA = 1.04

* * *

- System: ATP;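 note: ATP exposure 15 min at 22 °C before imaging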
- Assay info: switch fluorescence ratio, 500 uM ATP over buffer (Cy3 cluster intensity, sum of 5 cycles each) (fold (ratio)); higher = stronger signal-on switching upon ATP binding; sequences stand for … in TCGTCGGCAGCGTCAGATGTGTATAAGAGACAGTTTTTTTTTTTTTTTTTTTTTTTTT…TC
- Test settings: aptamer strand: ATP DNA aptamer (quencher-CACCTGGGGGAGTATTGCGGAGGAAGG + anchor), 100 nM annealed; ATP concentration: 500 uM
Measurement kind: switch fluorescence ratio

AATGCTTGTC = 0.952
GGTTTTAGAT = 0.998
GGATTGGGGG = 0.995
TTTTTATCAA = 1.01
GGGTAGCTCG = 0.987
TTTGACGACT = 1.01

* * *

Reported switch fluorescence ratio is given for each of the following sequences.
- Tested on: ATP;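 note: ATP exposure 15 min at 22 °C before imaging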
- Assay info: switch fluorescence ratio, 500 uM ATP over buffer (Cy3 cluster intensity, sum of 5 cycles each) (fold (ratio)); higher = stronger signal-on switching upon ATP binding; sequences stand for … in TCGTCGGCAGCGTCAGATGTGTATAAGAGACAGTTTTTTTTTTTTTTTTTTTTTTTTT…TC
- Test settings: aptamer strand: ATP DNA aptamer (quencher-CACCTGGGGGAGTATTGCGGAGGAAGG + anchor), 100 nM annealed; ATP concentration: 500 uM
Measurement kind: switch fluorescence ratio

AAAGTCTATT = 0.99
GATCGTTTTA = 1
TCCATGGGAT = 1.01
TTTCTAGGTT = 1
ATAGTGTTGG = 0.986
TGGGCAGGGG = 1.3
CAGTGTAGGG = 1.02
GAATTTAGCA = 1.02
AAAGGTTAAA = 0.99
CAGGCATGGT = 0.989
GAGGTAAAGC = 1
ATAGGGGGCT = 0.989
TGAGTTAGGC = 1.04
AAATGAGGGG = 0.992
TAGGAGTAAG = 1.01
TGGCAATGGG = 1.05
TACTAAGGGG = 1.04
TTTTCCGCGC = 2.08
TTCTAAAGAT = 0.969
ATCATGTACA = 0.996
AGGCTTATCT = 0.989

* * *

- Tested on: ATP;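 note: ATP exposure 15 min at 22 °C before imaging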
- Assay info: switch fluorescence ratio, 500 uM ATP over buffer (Cy3 cluster intensity, sum of 5 cycles each) (fold (ratio)); higher = stronger signal-on switching upon ATP binding; sequences stand for … in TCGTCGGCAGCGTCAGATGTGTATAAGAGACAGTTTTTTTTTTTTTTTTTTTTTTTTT…TC
- Test settings: aptamer strand: ATP DNA aptamer (quencher-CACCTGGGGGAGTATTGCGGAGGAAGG + anchor), 100 nM annealed; ATP concentration: 500 uM
Property: switch fluorescence ratio; scope: individual sequences
Measurement kind: switch fluorescence ratio

CGATAGGGGG = 1.01
GGCGCGCATT = 1.02
TAAGTGAGGG = 0.981
TCTGGTCATG = 0.995
GCGTTAAGTA = 1
TCGTTAGAAT = 0.948
CGTTTGAGTT = 0.984
AGGTGTAGGG = 1.01
CCGGTATTTG = 1.02
GGGAAAGATA = 0.988
AGGGGGGCTC = 0.98
TAAATAAGTT = 1

* * *

- System: ATP;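 note: ATP exposure 15 min at 22 °C before imaging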
- Assay info: switch fluorescence ratio, 500 uM ATP over buffer (Cy3 cluster intensity, sum of 5 cycles each) (fold (ratio)); higher = stronger signal-on switching upon ATP binding; sequences stand for … in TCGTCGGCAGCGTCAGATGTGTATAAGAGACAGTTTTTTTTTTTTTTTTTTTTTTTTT…TC
- Test settings: aptamer strand: ATP DNA aptamer (quencher-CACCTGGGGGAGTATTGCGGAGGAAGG + anchor), 100 nM annealed; ATP concentration: 500 uM
switch fluorescence ratio vs 1: at or above is Fulfilled, below is Not fulfilled.

AAGGTGTTTG = Fulfilled
CCGAAACTTG = Fulfilled
TCCTAGTCAT = Fulfilled
GAGCTTACGG = Fulfilled
TCGTTTTACT = Fulfilled
TCCCATGTTG = Fulfilled
GATCGGGGTG = Not fulfilled
ACATTAGTTA = Fulfilled
ATAGAAAACT = Fulfilled
GGCCATACGT = Fulfilled
GGGGAGTTGG = Not fulfilled
TGGGCCTAAG = Not fulfilled
AGGTAGCATA = Fulfilled
TTAGAAAATA = Fulfilled
AGAAGTCGCG = Not fulfilled
ATGCGCTAAT = Fulfilled
GCGGGCTGAA = Not fulfilled
CGGATACGCC = Fulfilled
CGCCAGGGGA = Fulfilled
AAGGTCCGCT = Fulfilled
TAAGGGGTTT = Fulfilled
ACCGAGCATG = Fulfilled
ATTCTTTGTT = Not fulfilled
TTCGGGTTAA = Fulfilled
ACTTCGAGCG = Fulfilled
AGGGTAATGG = Fulfilled
GAGCTATGTG = Fulfilled
GGTTCCAAGC = Fulfilled
